- systemName: T1, 4H457-bN
- T1 chain: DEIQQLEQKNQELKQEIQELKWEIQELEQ
- runDescription: two-hybrid library CCNG1;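 also: natural log of median RNA to DNA barcode read ratio; higher means stronger binding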
Entry flag: y if interaction score reaches -0.8; n if it does not.

                                     binder  category
0  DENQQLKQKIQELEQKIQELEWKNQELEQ [4H1831-bN]         n
1  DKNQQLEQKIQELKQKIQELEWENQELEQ [4H3427-bN]         n
2  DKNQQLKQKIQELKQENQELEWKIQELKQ [4H3926-bN]         y
3  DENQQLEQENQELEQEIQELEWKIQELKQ [4H1158-bN]         y
4  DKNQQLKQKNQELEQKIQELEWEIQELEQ [4H4001-bN]         y
5  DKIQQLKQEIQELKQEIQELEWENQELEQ [4H2627-bN]         n
6  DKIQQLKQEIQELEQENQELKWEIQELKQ [4H2586-bN]         n
7  DEIQQLEQKNQELKQEIQELKWEIQELEQ [4H457-bN]         n
8  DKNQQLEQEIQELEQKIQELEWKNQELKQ [4H3112-bN]         y
9  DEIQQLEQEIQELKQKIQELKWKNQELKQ [4H112-bN]         y
